# Kd per record follows
Target: PDCD6IP Alix V domain (Homo sapiens, UniProt Q8WUM4)
Construct: GST (cleaved yes); made in house; host or cells: Escherichia coli BL21-Gold(DE3)
Sequence (Q8WUM4 360-702): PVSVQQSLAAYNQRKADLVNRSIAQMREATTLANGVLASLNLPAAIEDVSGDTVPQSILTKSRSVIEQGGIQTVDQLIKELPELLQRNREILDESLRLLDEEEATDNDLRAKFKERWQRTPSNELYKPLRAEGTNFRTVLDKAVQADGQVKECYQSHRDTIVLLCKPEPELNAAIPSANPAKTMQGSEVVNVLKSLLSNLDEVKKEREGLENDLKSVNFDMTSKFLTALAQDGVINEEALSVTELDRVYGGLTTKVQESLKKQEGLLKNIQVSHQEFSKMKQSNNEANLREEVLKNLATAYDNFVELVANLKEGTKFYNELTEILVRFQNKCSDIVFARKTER
Assay: FP displacement assay, PDCD6IP Alix V domain
Assay type: binding
Conditions: probe FITC-HIV1_Gag 5 nM, 50 mM sodium phosphate pH 7.4, room temperature, at least three technical replicates, read-out: KD values ± SEM
Non-standard residues stand in square brackets, D forms with d. Residues, ends and D or L forms follow the SMILES beside them. pS = N[C@@H](COP(=O)(O)O)C(=O)O
Respond with the bare value in µM.

Consider the following illustrative entries.
compound	Kd / µM
CC[C@H](C)[C@H](NC(=O)[C@H](CCCCN)NC(=O)[C@H](CC(C)C)NC(=O)[C@@H]1CCCN1C(=O)[C@H](CO)NC(=O)[C@@H](NC(=O)[C@H](CCC(N)=O)NC(=O)[C@@H]1CCCN1C(=O)[C@H](Cc1ccc(O)cc1)NC(=O)[C@H](CC(C)C)NC(=O)[C@@H]1CCCN1C(=O)[C@H](CCCNC(=N)N)NC(=O)[C@H](CC(C)C)NC(=O)[C@@H]1CCCN1C(=O)[C@H](CO)NC(=O)[C@H](C)NC(C)=O)[C@@H](C)CC)C(N)=O [FOXK1_212–227 wt] (Ac-ASPLRPLYPQISPLKI-NH2)	25
CC[C@H](C)[C@H](NC(=O)[C@H](CCCCN)NC(=O)[C@H](CC(C)C)NC(=O)[C@@H]1CCCN1C(=O)[C@H](CCC(=O)O)NC(=O)[C@@H](NC(=O)[C@H](CCC(N)=O)NC(=O)[C@@H]1CCCN1C(=O)[C@H](Cc1ccc(O)cc1)NC(=O)[C@H](CC(C)C)NC(=O)[C@@H]1CCCN1C(=O)[C@H](CCCNC(=N)N)NC(=O)[C@H](CC(C)C)NC(=O)[C@@H]1CCCN1C(=O)[C@H](CO)NC(=O)[C@H](C)NC(C)=O)[C@@H](C)CC)C(N)=O [FOXK1_212–227 E] (Ac-ASPLRPLYPQIEPLKI-NH2)	13
CC(=O)N[C@H](C(=O)N[C@@H](CO)C(=O)N1CCC[C@H]1C(=O)N[C@@H](CC(C)C)C(=O)N[C@H](C(=O)N[C@@H](CO)C(=O)N[C@@H](CC(C)C)C(=O)N[C@@H](Cc1ccc(O)cc1)C(=O)N1CCC[C@H]1C(=O)N[C@@H](C)C(=O)N[C@@H](CC(C)C)C(=O)N[C@@H](CCC(=O)O)C(=O)N[C@@H](C)C(=O)N[C@@H](CCCNC(=N)N)C(=O)N[C@@H](C)C(=O)N[C@@H](CC(C)C)C(N)=O)C(C)C)[C@@H](C)O [OTUD5_507–522 wt] (Ac-TSPLVSLYPALEARAL-NH2)	68
CC[C@H](C)[C@H](NC(=O)[C@H](CCCCN)NC(=O)[C@H](CC(C)C)NC(=O)[C@@H]1CCCN1C(=O)[C@H](COP(=O)(O)O)NC(=O)[C@@H](NC(=O)[C@H](CCC(N)=O)NC(=O)[C@@H]1CCCN1C(=O)[C@H](Cc1ccc(O)cc1)NC(=O)[C@H](CC(C)C)NC(=O)[C@@H]1CCCN1C(=O)[C@H](CCCNC(=N)N)NC(=O)[C@H](CC(C)C)NC(=O)[C@@H]1CCCN1C(=O)[C@H](CO)NC(=O)[C@H](C)NC(C)=O)[C@@H](C)CC)C(N)=O [FOXK1_212–227 pS] (Ac-ASPLRPLYPQI[pS]PLKI-NH2)	13

Now for another entry.
Lookup: Any idea what Kd came out for CC(=O)N[C@H](C(=O)N[C@@H](CCC(=O)O)C(=O)N1CCC[C@H]1C(=O)N[C@@H](CC(C)C)C(=O)N[C@H](C(=O)N[C@@H](CO)C(=O)N[C@@H](CC(C)C)C(=O)N[C@@H](Cc1ccc(O)cc1)C(=O)N1CCC[C@H]1C(=O)N[C@@H](C)C(=O)N[C@@H](CC(C)C)C(=O)N[C@@H](CCC(=O)O)C(=O)N[C@@H](C)C(=O)N[C@@H](CCCNC(=N)N)C(=O)N[C@@H](C)C(=O)N[C@@H](CC(C)C)C(N)=O)C(C)C)[C@@H](C)O [OTUD5_507–522 E] (Ac-TEPLVSLYPALEARAL-NH2) on PDCD6IP Alix V domain (Homo sapiens, UniProt Q8WUM4)?
Found: 88
